# STUDY_SYSTEM: GABA-A receptor; anion channel
# METHOD_SUMMARY: Inhibitory concentration against [3H]flunitrazepam binding to Benzodiazepine receptor in bovine brain membranes
pIC50: −log10 of the molar value.
Tick satisfied if pIC50 is 5 or greater. Tick not satisfied if pIC50 is less than 5.

- SMILES_DATA: "Cc1nn(-c2ccc(Cl)cc2)c2c1c(O)nc1ccccc12"
  CLASS_LABEL: "not satisfied"
- SMILES_DATA: "Cc1nn(-c2cccc(Cl)c2)c2c1c(=O)n(C)c1ccccc21"
  CLASS_LABEL: "satisfied"
- SMILES_DATA: "Cc1nn(-c2ccc(Cl)cc2)c2c1c(=O)n(C)c1ccccc21"
  CLASS_LABEL: "satisfied"
- SMILES_DATA: "Cc1cccc(-n2nc(C)c3c(=O)n(C)c4ccccc4c32)c1"
  CLASS_LABEL: "satisfied"
- SMILES_DATA: "Cc1nn(-c2cccc(Cl)c2)c2c1c(O)nc1ccccc12"
  CLASS_LABEL: "satisfied"
- SMILES_DATA: "Cc1nn(-c2ccccc2)c2c1c(=O)n(C)c1ccccc21"
  CLASS_LABEL: "satisfied"

###

# STUDY_SYSTEM: GABA-A receptor; anion channel (Bos taurus) (UniProt P10063+P08220+P20237+P08219+P10064+P22300)
# METHOD_SUMMARY: Inhibition of specific [3H]flunitrazepam binding to Benzodiazepine receptor in bovine brain membranes at 34 uM
# Assay type: cell membranes
Binary call on inhibition: Fulfilled from 50% upward, Not fulfilled beneath that.

- SMILES_DATA: "Cc1[nH]nc2c1c(=O)[nH]c1ccccc12"
  CLASS_LABEL: "Not fulfilled"
- SMILES_DATA: "Cc1cccc(-n2nc(C)c3c(Cl)nc4ccccc4c32)c1"
  CLASS_LABEL: "Not fulfilled"
- SMILES_DATA: "Cc1ccc(-n2nc(C)c3c(=O)n(C)c4ccccc4c32)cc1"
  CLASS_LABEL: "Fulfilled"
- SMILES_DATA: "Cc1cccc(-n2nc(C)c3c(=O)n(C)c4ccccc4c32)c1"
  CLASS_LABEL: "Fulfilled"
- SMILES_DATA: "Cc1nn(-c2ccc(Cl)cc2)c2c1c(=O)n(C)c1ccccc21"
  CLASS_LABEL: "Fulfilled"
- SMILES_DATA: "Cc1nn(-c2cccc(Cl)c2)c2c1c(O)nc1ccccc12"
  CLASS_LABEL: "Fulfilled"
- SMILES_DATA: "Cc1nn(-c2ccccc2)c2c1c(=O)n(C)c1ccccc21"
  CLASS_LABEL: "Fulfilled"
- SMILES_DATA: "Cc1nn(-c2cccc(Cl)c2)c2c1c(=O)n(C)c1ccccc21"
  CLASS_LABEL: "Fulfilled"
- SMILES_DATA: "Cc1cccc(-n2nc(C)c3c(N4CCOCC4)nc4ccccc4c32)c1"
  CLASS_LABEL: "Not fulfilled"
- SMILES_DATA: "Cc1nn(-c2ccccc2)c2c1c(N1CCOCC1)nc1ccccc12"
  CLASS_LABEL: "Not fulfilled"
- SMILES_DATA: "Cc1nn(-c2ccccc2)c2c1c(N1CCN(C)CC1)nc1ccccc12"
  CLASS_LABEL: "Not fulfilled"
